Literature compilation of pIC50 measurements on Fibroblast growth factor receptor 3 (Homo sapiens, UniProt P22607).
Scale: pIC50 equals -log10([C]), with [C] in mol/L.

// below: answered compounds
* Cc1cc(C(=O)NCCN2CCCC2)c(/C=C2\C(=O)Nc3cccc(-c4ccc(Br)cc4)c32)[nH]1 | 6.66
* COc1cc(C)cc2cc(-c3c(CN4CCCC(N(C)C)C4)cn4ncnc(N)c34)sc12 (stereo not drawn) | 9.22
* Cc1[nH]c(/C=C2\C(=O)Nc3cccc(-c4cccc(F)c4)c32)c(C)c1C(=O)NCCn1ccnn1 | 7.14
* CNC(=O)c1cc(CCc2cnc(Nc3ccc(N4CCNCC4)cc3)nc2)c(Cl)c(OC)c1 | 8.05
* Cc1cc2c(Nc3c[nH]nc3C(=O)Nc3ccc(CN4CCN(C)CC4)cc3)ncnc2s1 | 6.14

Then there is this compound:
I have this compound here, C=CC(=O)N1C[C@@H](Nc2ncc3cc(-c4c(Cl)c(OC)cc(OC)c4Cl)ccc3n2)C[C@H]1CO , and I need its recorded pIC50.
7.72

* * *

Compiled from multiple publications: log10 IC50 readings for Fibroblast growth factor receptor 3 (Homo sapiens, UniProt P22607).
In our notation, the value equals log10 of IC50 in nM.

Return reported log10 IC50; argument: CCN1CCN(Cc2ccc(NC(=O)c3ccc(C)c(NC(=O)N(C)c4ncnc5[nH]ccc45)c3)cc2C(F)(F)F)CC1
1.56

Note, next up: CNC(=O)c1cc(CCc2cnc(Nc3ccc(C(=O)N4CCN(C)CC4)cc3)nc2)c(Cl)c(OC)c1
0.85

Then what about the molecule C=CC(=O)Nc1cc(N2CCN(CC(F)(F)C(F)(F)F)CC2)ccc1C(=O)Nc1cc(CCc2cc(OC)cc(OC)c2)n[nH]1 ?
0.76

Try CNC(=O)c1cc(CCc2cnc(Nc3cnn([C@@H]4CCCN(C)C4)c3)nc2)c(F)c(OC)c1 next.
0.85

Now the molecule CNC(=O)c1cc(CCc2cnc(Nc3cnn(CCN4CCN(C)CC4)c3)nc2)c(Cl)c(OC)c1
0.90

Record: C=CC(=O)Nc1cc(N2CCN(CCC(F)(F)F)CC2)ccc1C(=O)Nc1cc(CCc2cc(OC)cc(OC)c2)n[nH]1
0.52

Likewise for CNC(=O)c1cc(CCc2cnc(Nc3c(C)nn(C)c3C)nc2)c(F)c(OC)c1 ?
2.49

How about CNC(=O)c1cc(CCc2cnc(Nc3ccc(CN4CCOCC4)cc3)nc2)c(F)c(OC)c1 ?
1.08

* * *

Compiled literature IC50, tested on Fibroblast growth factor receptor 3 (Homo sapiens, UniProt P22607).

These recorded examples may help you get a feel for the data.
* CC[C@]1(O)[C@H](N)C[C@H](c2ccncc2NC(=O)c2ccc(F)c(-c3c(F)cccc3F)n2)O[C@@H]1C | > 10000 nM
* CNC(=O)c1cc(CCc2cnc(Nc3ccc4nnc(C)n4c3)nc2)c(F)c(OC)c1 | 42 nM
* CNC(=O)c1cc(-c2ccc(F)cc2F)cc(-c2cnc3cc(-c4cnn(C)c4)c(OC)nn23)c1 | < 10 nM

Next:
Recorded IC50 of CC(C(=O)NCC#N)n1cc(-c2cnn3c(-c4cccc(NC(=O)NCC(F)(F)F)c4)cnc3c2)cn1 (stereo not shown) , please.
< 10 nM

* * *

Multiple publications report IC50 for Fibroblast growth factor receptor 3 (Homo sapiens, UniProt P22607); what follows is a combined list.
Give your result in nM as a bare value.

• CCN1CCN(c2ccc(Nc3ncc(CCc4cc(OC)cc(C(=O)NOC)c4)cn3)cn2)CC1 = 8

What does the record list as IC50 for C=CC(=O)N1C[C@@H](C)[C@H](Nc2ncc3cc(-c4c(Cl)c(OC)cc(OC)c4Cl)ccc3n2)C1 ?
34

Can you handle COc1cc(Cl)cc2cc(-c3c(CN4CCNC(=O)C4)cn4ncnc(N)c34)sc12 next?
0.3

Now this one: CNC(=O)c1cc(CCc2cnc(Nc3cnn(C4CC4)c3)nc2)c(Cl)c(OC)c1
19

Likewise for C=CC(=O)N1CC(CN2CCC(n3cc(-c4cnc5ccc(Nc6cc(OC)cc(OC)c6)cc5n4)cn3)CC2)C1 ?
26

Can you check CNC(=O)c1cc(CCc2cnc(Nc3ccnc(OC)c3)nc2)c(F)c(OC)c1 next?
33

Proceed to CCN(CC)CCn1cc(Nc2ncc(CCc3cc(C(=O)NC)cc(OC)c3Cl)cn2)cn1
10

And for CNC(=O)c1cc(CCc2cnc(Nc3ccc(CN4CCN(C)CC4)cc3)nc2)c(F)c(OC)c1 ?
12

* * *

The molecules below each have a reported pIC50 tested on UniProt:P22607; the values come from various publications.
pIC50: −log10 of the molar value.

Here is how some molecules turned out for pIC50.
* COc1cc(OC)c(Cl)c(-c2cc3[nH]nc(-c4cnn(CC(=O)N5CCC(O)C5)c4)c3cn2)c1Cl (stereo not shown) | > 7.00
* NC(=O)c1cnc2c3cc(-c4cnn(C5CCOCC5)c4)cnc3ccn12 | 7.30 to 8.00
* C=CC(=O)NCc1cc2c(cn1)CN(c1c(F)c(OC)cc(OC)c1F)C(=O)N2C[C@H]1CCOC1 | < 6.70
* O=C(NCC(F)(F)F)Nc1cccc(-c2cnc3cc(-c4ccc(N5CCN(C(=O)N6CCCC6)CC5)nc4)cnn23)c1 | > 8.00

Record request: pIC50 value, item COc1cc(OC)c(F)c(N2Cc3cnc(N)c(C#N)c3N(Cc3cnn(C)c3)C2=O)c1F
> 7.00

Repeat with COc1cc(F)c(-c2nc(C(=O)Nc3cnccc3[C@H]3C[C@@H](N)[C@](C)(O)[C@@H](C)O3)ccc2F)c(F)c1
< 5.00

Same thing, different molecule: COc1cc(OC)c2sc(-c3c(CN4CCNC(=O)C4)cn4ncnc(N)c34)cc2c1
8.74

* * *

Hi, quick share: literature log10 IC50 data for Fibroblast growth factor receptor 3 (Homo sapiens), several sources combined.
Remember, log10 of IC50, in nM.

Worked cases, answers included:
* COc1cc(C)cc2cc(-c3c(CNC(C)C(N)=O)cn4ncnc(N)c34)sc12 (racemic) | 1.06
* COc1cc(C)cc2cc(-c3c(CN4CCOC(C)C4)cn4ncnc(N)c34)sc12 (stereo not drawn) | 0.69
* CCN1CCN(c2ccc(Nc3ccc(CCc4cc(OC)cc(C(=O)NOC)c4)cn3)cn2)CC1 | 1.79
* COc1cc(C)cc2cc(-c3c(COCC(=O)O)cn4ncnc(N)c34)sc12 | 1.86

Form entry - test system: Fibroblast growth factor receptor 3 (Homo sapiens); read-out: log10 IC50; molecule: CC[C@]1(O)[C@H](C)O[C@H](c2ccncc2NC(=O)c2nc(-c3ccccc3)cnc2N)C[C@@H]1N
3.87

Input C=CC(=O)N1CC(C(=O)N2CCN(c3cccc(-c4cnc5ccc(Nc6cc(OC)cc(OC)c6)cc5n4)c3)CC2)C1
2.68

Okay, and COc1ccc(Nc2cc3c(cn2)cc(-c2cc(NC(=O)c4cccc(C(F)(F)F)c4)ccc2C)c(=O)n3C)cn1 ?
2.03

* * *

Collected IC50 for Fibroblast growth factor receptor 3 (Homo sapiens) across several studies; compounds listed below.

- Cn1cc(-c2cn3ncc(-c4cccc(-c5cc[nH]n5)c4)c3nc2O[C@H]2CCOC2)cn1: < 0.01 µM
- CONC(=O)c1cc(CCc2cnc(Nc3ccc(N4C[C@@H](C)N[C@@H](C)C4)c(C)c3)nc2)cc(OC)c1: 0.008 µM
- COc1cc(OC)c(Cl)c(-c2ncc3c(-c4ccc5c(c4)CCNC5=O)n[nH]c3n2)c1Cl: < 0.1 µM
- CC[C@]1(O)[C@H](O)C[C@H](c2ccncc2NC(=O)c2nc(-c3c(F)cccc3F)ncc2N)O[C@@H]1C: > 10 µM
- CC(O)CNC(=O)C(C)n1cc(-c2cnn3c(-c4cccc(NC(=O)NCC(F)(F)F)c4)cnc3c2)cn1 (stereo not shown): < 0.01 µM

I have this compound here, CC(C)(O)Cn1cc(-c2cnc3ccn4c(C(N)=O)c(-c5c(Cl)cccc5Cl)nc4c3c2)cn1 , and I need its recorded IC50.
< 0.0001 µM

Let us now turn to CNC(=O)c1cc(CC#N)c(F)c(-c2cnc3cc(-c4cnn(C)c4)c(O[C@H]4CCOC4)nn23)c1
< 0.01 µM

* * *

Collected set of IC50 measured with Fibroblast growth factor receptor 3 (Homo sapiens, UniProt P22607) across studies.
Please give a number only; it is taken to be in nM.

- Cc1cc(C(=O)N2C[C@@H](C)N[C@@H](C)C2)c(/C=C2\C(=O)Nc3cccc(-c4cccc(Cl)c4)c32)[nH]1: 1990
- COc1cc(Nc2ccc3ncc(-c4cnn(C5CCN(C(=O)C6(F)CN(C(=O)/C=C/CN(C)C)C6)CC5)c4C)nc3c2)cc(OC)c1: 48

Next compound, please.
Identify the measured IC50 of CONC(=O)c1cc(CCc2cnc(Nc3cnn(C)c3)nc2)cc(OC)c1 for Fibroblast growth factor receptor 3 (Homo sapiens, UniProt P22607).
13
